Tested on: angiotensin converting enzyme (ACE)
Assay: in vivo attenuation of angiotensin I pressor response after oral administration in conscious, normotensive rats
Details: oral dose 0.5 (dose unit not given); maximum during three-hour period; mean of at least four rats
Counter-ions that a name gives are not always drawn.
Quick rule for you: Maximum Percent Inhibition of the angiotensin I pressor response under 20% gets met, anything else gets not met.

Maximum Percent Inhibition of the angiotensin I pressor response strictly < 20% for this molecule? NCCCC[C@H](OP(=O)(O)CCCCc1ccc(F)cc1)C(=O)N1CCC[C@H]1C(=O)O [Example 5]
not met

I wonder whether CCCCCCP(=O)(O)O[C@@H](CCCCN)C(=O)N1CCC[C@H]1C(=O)O [Example 9] has Maximum Percent Inhibition of the angiotensin I pressor response below 20%. Can you tell?
met

Identify whether the molecule CCCCCCCCP(=O)(O)O[C@@H](CCCCN)C(=O)N1CCC[C@H]1C(=O)O [Example 12, dilithium salt] records Maximum Percent Inhibition of the angiotensin I pressor response below 20%.
met

Is 20% strictly greater than the molecule's reported Maximum Percent Inhibition of the angiotensin I pressor response? molecule: CCCCCCCP(=O)(O)O[C@@H](CCCCN)C(=O)N1CCC[C@H]1C(=O)O [Example 10]
not met

Lab log: compare recorded Maximum Percent Inhibition of the angiotensin I pressor response with 20%; is it strictly lower for NCCCC[C@H](OP(=O)(O)CCCCc1ccccc1)C(=O)N1CCC[C@H]1C(=O)O [Example 4] ?
not met

----------
Tested on: angiotensin converting enzyme (ACE)
Test: in vivo attenuation of angiotensin I pressor response after oral administration in conscious, normotensive rats
Details: oral dose 1.5 (dose unit not given); maximum during three-hour period; mean of at least four rats
Structures can show the parent of a compound that is named as a salt.
Quick reference: Maximum Percent Inhibition of the angiotensin I pressor response of the listed items.
Report the value in % with no unit label.

Solved cases below.
NCCCC[C@H](OP(=O)(O)CCc1ccccc1)C(=O)N1CCC[C@H]1C(=O)O [Example 1, dilithium salt] : 50.30
CCCCCCCP(=O)(O)O[C@@H](CCCCN)C(=O)N1CCC[C@H]1C(=O)O [Example 10] : 66.00
CCCCCCCCP(=O)(O)O[C@@H](CCCCN)C(=O)N1CCC[C@H]1C(=O)O [Example 12, dilithium salt] : 51.10
NCCCC[C@H](OP(=O)(O)CCCCc1ccccc1)C(=O)N1CCC[C@H]1C(=O)O [Example 4] : 69.00
CCCCCCP(=O)(O)O[C@@H](CCCCN)C(=O)N1CCC[C@H]1C(=O)O [Example 9] : 66.50
NCCCC[C@H](OP(=O)(O)CCCc1ccccc1)C(=O)N1CCC[C@H]1C(=O)O [Example 2] : 32.30

Consider now this further compound.
Reported Maximum Percent Inhibition of the angiotensin I pressor response ( NCCCC[C@H](OP(=O)(O)CCCCc1ccc(F)cc1)C(=O)N1CCC[C@H]1C(=O)O [Example 5] ) = 69.00

----------
Tested on: angiotensin converting enzyme (ACE)
Assay: in vivo attenuation of angiotensin I pressor response after oral administration in conscious, normotensive rats
Settings: oral dose 5 (dose unit not given); maximum during three-hour period; mean of at least four rats
Structures can show the parent of a compound that is named as a salt.
Kindly apply the following: criterion met if Maximum Percent Inhibition of the angiotensin I pressor response is less than 80%, criterion not met in every other case.

Take a look at these entries with their results.
CCCCCCCP(=O)(O)O[C@@H](CCCCN)C(=O)N1CCC[C@H]1C(=O)O : criterion met
NCCCC[C@H](OP(=O)(O)CCCc1ccccc1)C(=O)N1CCC[C@H]1C(=O)O : criterion met
NCCCC[C@H](OP(=O)(O)CCCCCc1ccccc1)C(=O)N1CCC[C@H]1C(=O)O : criterion met
CCCCCP(=O)(O)O[C@@H](CCCCN)C(=O)N1CCC[C@H]1C(=O)O : criterion met
NCCCC[C@H](OP(=O)(O)CCCCc1ccccc1)C(=O)N1CCC[C@H]1C(=O)O : criterion not met
NCCCC[C@H](OP(=O)(O)CCc1ccccc1)C(=O)N1CCC[C@H]1C(=O)O [Example 1, dilithium salt] : criterion met

Lab log: compare recorded Maximum Percent Inhibition of the angiotensin I pressor response with 80%; is it strictly lower for CCCCCCCCP(=O)(O)O[C@@H](CCCCN)C(=O)N1CCC[C@H]1C(=O)O [Example 12, dilithium salt] ?
criterion not met
